Biological target: Sodium/potassium-transporting ATPase
Test: Inhibition of potassium-activated sodium/potassium ATPase in human placenta using 3-O-methylfluorescein phosphate as substrate measured for 90 secs by fluorescence assay
Where a SMILES comes first, the peptide text is derived from it.

{"columns": ["molecule", "IC50"],
 "data": [
  ["CC[C@H](C)[C@@H]1NC(=O)[C@@H]2CCCN2C(=O)[C@H](Cc2ccc(O)cc2)NC(=O)[C@@H]2CCCN2C(=O)[C@H]([C@@H](C)CC)NC(=O)[C@@H]2CCCN2C(=O)[C@H](Cc2ccccc2)NC1=O (HELM PEPTIDE1{F.P.I.P.Y.P.I}$PEPTIDE1,PEPTIDE1,1:R1-7:R2$$$V2.0)", "> 100 µM"],
  ["CC[C@H](C)[C@@H]1NC(=O)[C@H](C)NC(=O)[C@H](CC[S+](C)[O-])NC(=O)[C@H](C)NC(=O)[C@H](CC(N)=O)NC(=O)[C@H](Cc2ccccc2)NC(=O)[C@@H]2CCCN2C1=O (some centres not stated) (HELM PEPTIDE1{A.I.P.F.N.A.[CS(=O)CC[C@H](N[*:1])C(=O)[*:2]]}$PEPTIDE1,PEPTIDE1,1:R1-7:R2$$$V2.0)", "> 100 µM"]
]}

Sourced from ChEMBL document CHEMBL4145614
